target: NMDA receptor complex, glycine co-agonist site (Rattus norvegicus); construct: Crude synaptic membranes used in the assay were prepared using rat hippocampal tissue; from tissue; host or cells: rat hippocampus, crude synaptic membranes; assay type: biochemical; conditions: 10^-8 M peptide; rat hippocampus membranes; in the presence of 7-chlorokynurenic acid; ± S.E.M.
No end group written: not given here.
Each item that follows carries a reported [3H]MK-801 binding, percentage of control binding.
Reply with just the number (in %).

Worked cases, [3H]MK-801 binding, percentage of control binding given:
Substance	Target or system	Quantity unit	Reported
QQHYSTPPTFGGG [NT-8]	NMDA receptor complex, glycine co-agonist site (Rattus norvegicus)	%	110
FTISSVQAELDLAVYYSQQHYSTPPT [NT-7]	NMDA receptor complex, glycine co-agonist site (Rattus norvegicus)	%	103
QQHYSTPPTFGGGTKLE [NT-9]	NMDA receptor complex, glycine co-agonist site (Rattus norvegicus)	%	126
EDLAVYYSQQHYSTPPT [NT-5]	NMDA receptor complex, glycine co-agonist site (Rattus norvegicus)	%	100
SQQHYSTPPTS [NT-11]	NMDA receptor complex, glycine co-agonist site (Rattus norvegicus)	%	111

Ask: Which [3H]MK-801 binding, percentage of control binding is listed for SVQAELDLAVYYSQQHYSTPPT [NT-6] ?
Reply: 101

Ask: Subsequent entry: QQHYS [NT-12, Gln-Gln-His-Tyr-Ser]
Reply: 104

Ask: Subsequent entry: QQHYSTPPT [NT-3]
Reply: 123

Ask: Subsequent entry: VYYSQQHYSTPPT [NT-4]
Reply: 106

---

Target: NMDA receptor complex, glycine co-agonist site (Rattus norvegicus, UniProt P35439)
Construct: Crude synaptic membranes used in the assay were prepared using rat hippocampal tissue; from tissue; host or cells: rat hippocampus, crude synaptic membranes
Assay type: biochemical
Conditions: 10^-9 M peptide; rat hippocampus membranes; in the presence of 7-chlorokynurenic acid; ± S.E.M.
Protocol: Polypeptides or amino acid compositions of the instant invention were tested for the ability to mimic the glycine co-agonist effect on the NMDA receptor using a previously validated [^3 H]MK-801 binding assay. […] Frozen pellets are thawed at room temperature and washed three times by resuspension in 5 mM Tris (pH 7.4) and centrifugation. […] Non-specific binding is determined using 10-- M unlabelled MK-801. […]
Positions of bridges follow the written chain, without caps; N, C: chain ends. Residues, ends and D or L forms follow the SMILES beside them.
Metric name: [3H]MK-801 binding, percentage of control binding (%)
Reply with just the number (in %).

Worked cases, [3H]MK-801 binding, percentage of control binding given:
Compound	Reported
C[C@@H](O)[C@@H]1NC(=O)[C@@H]2CCCN2C(=O)[C@@H]2CCCN2C(=O)[C@H]([C@@H](C)O)NC(=O)[C@H](CO)NC(=O)[C@H](Cc2ccc(O)cc2)NC(=O)[C@H](Cc2c[nH]cn2)NC(=O)[C@H](CCC(N)=O)NC(=O)[C@H](CCC(N)=O)NC(=O)[C@@H](N)CSSC[C@@H](C(=O)O)NC1=O [NT-10] (H-CQQHYSTPPTC-OH; disulfide 1-11)	100
C[C@@H](O)[C@H](N)C(=O)N1CCC[C@H]1C(=O)N1CCC[C@H]1C(=O)O [NT-14, Thr-Pro-Pro] (H-Thr-Pro-Pro-OH)	89
C[C@@H](O)[C@H](N)C(=O)N1CCC[C@H]1C(=O)N[C@H](C(=O)O)[C@@H](C)O [NT-17, Thr-Pro-Thr] (H-Thr-Pro-Thr-OH)	122

Ask: Which [3H]MK-801 binding, percentage of control binding is listed for C[C@@H](O)[C@H](NC(=O)[C@@H]1CCCN1C(=O)[C@@H]1CCCN1)C(=O)O [NT-15, Pro-Pro-Thr] (H-Pro-Pro-Thr-OH) ?
Reply: 99

Ask: Subsequent entry: O=C(O)[C@@H]1CCCN1C(=O)[C@@H]1CCCN1 [NT-16, Pro-Pro] (H-Pro-Pro-OH)
Reply: 83

Ask: Subsequent entry: C[C@@H](O)[C@H](N)C(=O)N1CCC[C@H]1C(=O)N1CCC[C@H]1C(=O)N[C@H](C(=O)O)[C@@H](C)O [NT-13, Thr-Pro-Pro-Thr] (H-TPPT-OH)
Reply: 97

---

target: NMDA receptor complex, glycine co-agonist site (Rattus norvegicus); construct: Crude synaptic membranes used in the assay were prepared using rat hippocampal tissue; from tissue; host or cells: rat hippocampus, crude synaptic membranes; assay type: biochemical; conditions: 10^-6 M peptide; rat hippocampus membranes; in the presence of 7-chlorokynurenic acid; ± S.E.M.
Positions of bridges follow the written chain, without caps; N, C: chain ends. Residues, ends and D or L forms follow the SMILES beside them.
Metric name: [3H]MK-801 binding, percentage of control binding (%)
Reply with just the number (in %).

Molecule	Reported
C[C@@H](O)[C@@H]1NC(=O)[C@@H]2CCCN2C(=O)[C@@H]2CCCN2C(=O)[C@H]([C@@H](C)O)NC(=O)[C@H](CO)NC(=O)[C@H](Cc2ccc(O)cc2)NC(=O)[C@H](Cc2c[nH]cn2)NC(=O)[C@H](CCC(N)=O)NC(=O)[C@H](CCC(N)=O)NC(=O)[C@@H](N)CSSC[C@@H](C(=O)O)NC1=O [NT-10] (H-CQQHYSTPPTC-OH; disulfide 1-11)	128

Now look at this entry.
Ask: # query: [3H]MK-801 binding, percentage of control binding | item C[C@@H](O)[C@H](N)C(=O)N1CCC[C@H]1C(=O)N[C@H](C(=O)O)[C@@H](C)O [NT-17, Thr-Pro-Thr] (H-Thr-Pro-Thr-OH) | system: NMDA receptor complex, glycine co-agonist site (Rattus norvegicus)
Reply: 117

---

Each item that follows carries a reported [3H]MK-801 binding, percentage of control binding.
Molecular target: NMDA receptor complex, glycine co-agonist site (Rattus norvegicus, UniProt P35439)
Construct: Crude synaptic membranes used in the assay were prepared using rat hippocampal tissue; from tissue; host or cells: rat hippocampus, crude synaptic membranes
Type: biochemical
Details: 10^-7 M peptide; rat hippocampus membranes; in the presence of 7-chlorokynurenic acid; ± S.E.M.
Experimental: Polypeptides or amino acid compositions of the instant invention were tested for the ability to mimic the glycine co-agonist effect on the NMDA receptor using a previously validated [^3 H]MK-801 binding assay. […] Frozen pellets are thawed at room temperature and washed three times by resuspension in 5 mM Tris (pH 7.4) and centrifugation. […] Non-specific binding is determined using 10-- M unlabelled MK-801. […]
No end group written: not given here.
Reply with just the number (in %).

Ask: Which [3H]MK-801 binding, percentage of control binding is listed for QQHYS [NT-12, Gln-Gln-His-Tyr-Ser] ?
Reply: 95

Ask: Subsequent entry: EDLAVYYSQQHYSTPPT [NT-5]
Reply: 114

Ask: Subsequent entry: FTISSVQAELDLAVYYSQQHYSTPPT [NT-7]
Reply: 97

Ask: Subsequent entry: SVQAELDLAVYYSQQHYSTPPT [NT-6]
Reply: 101

Ask: Subsequent entry: QQHYSTPPTFGGG [NT-8]
Reply: 108

Ask: Subsequent entry: QQHYSTPPTFGGGTKLE [NT-9]
Reply: 125

Ask: Subsequent entry: SQQHYSTPPTS [NT-11]
Reply: 118

Ask: Subsequent entry: QQHYSTPPT [NT-3]
Reply: 121

Ask: Subsequent entry: VYYSQQHYSTPPT [NT-4]
Reply: 116

---

Each item that follows carries a reported [3H]MK-801 binding, percentage of control binding.
biological target: NMDA receptor complex, glycine co-agonist site (Rattus norvegicus, UniProt P35439); construct: Crude synaptic membranes used in the assay were prepared using rat hippocampal tissue; from tissue; host or cells: rat hippocampus, crude synaptic membranes; format: biochemical; conditions: 10^-9 M peptide; rat hippocampus membranes; in the presence of 7-chlorokynurenic acid; ± S.E.M.
No end group written: not given here.
Reply with just the number (in %).

Worked cases, [3H]MK-801 binding, percentage of control binding given:
Substance	Reported
SVQAELDLAVYYSQQHYSTPPT [NT-6]	95
VYYSQQHYSTPPT [NT-4]	106
FTISSVQAELDLAVYYSQQHYSTPPT [NT-7]	96
EDLAVYYSQQHYSTPPT [NT-5]	109
QQHYSTPPT [NT-3]	112
QQHYSTPPTFGGG [NT-8]	105

Ask: Which [3H]MK-801 binding, percentage of control binding is listed for SQQHYSTPPTS [NT-11] ?
Reply: 96

Ask: Subsequent entry: QQHYS [NT-12, Gln-Gln-His-Tyr-Ser]
Reply: 95

Ask: Subsequent entry: QQHYSTPPTFGGGTKLE [NT-9]
Reply: 104

---

target: NMDA receptor complex, glycine co-agonist site (Rattus norvegicus, UniProt P35439); construct: Crude synaptic membranes used in the assay were prepared using rat hippocampal tissue; from tissue; host or cells: rat hippocampus, crude synaptic membranes; format: biochemical; settings: 10^-6 M peptide; rat hippocampus membranes; in the presence of 7-chlorokynurenic acid; ± S.E.M.
No end group written: not given here.
Metric name: [3H]MK-801 binding, percentage of control binding (%)
Reply with just the number (in %).

Ask: Which [3H]MK-801 binding, percentage of control binding is listed for QQHYSTPPT [NT-3] ?
Reply: 111
